target: Acetylcholinesterase (Electrophorus electricus, UniProt O42275)
readout: IC50

IC50 for c1cn(-c2cc(NC3=NC[C@@]4(CN5CCC4CC5)O3)ncn2)cn1 [BMS-933043] ?
> 60 µM

###

target: HEK293/rat α7 nAChR cells (Rattus norvegicus, UniProt Q05941); construct: expressed in transfected cells; assay: Whole cell voltage clamp electrophysiology; format: cell-based; settings: IC50 for inhibition of BMS-933043 (10 μM) net charge crossing the membrane, n = 6
Sequence (Q05941 23-502): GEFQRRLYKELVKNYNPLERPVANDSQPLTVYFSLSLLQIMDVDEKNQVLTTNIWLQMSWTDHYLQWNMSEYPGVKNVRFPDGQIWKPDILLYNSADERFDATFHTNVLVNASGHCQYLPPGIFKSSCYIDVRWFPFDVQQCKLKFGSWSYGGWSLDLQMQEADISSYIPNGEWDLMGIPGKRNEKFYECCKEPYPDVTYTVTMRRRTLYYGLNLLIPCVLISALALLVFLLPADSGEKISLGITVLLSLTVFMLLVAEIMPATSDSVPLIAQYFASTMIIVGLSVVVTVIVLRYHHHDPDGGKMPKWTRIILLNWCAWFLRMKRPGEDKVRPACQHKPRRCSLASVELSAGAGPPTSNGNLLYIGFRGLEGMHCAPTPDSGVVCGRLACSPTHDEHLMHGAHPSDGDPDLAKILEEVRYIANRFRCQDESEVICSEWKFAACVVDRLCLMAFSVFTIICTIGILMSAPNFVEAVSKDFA
readout: pIC50
Hey, just a heads up that pIC50 is the negative log base 10 of the concentration in molar.

pIC50 for O=C(c1ccc(-c2cccc(C(F)(F)F)c2)o1)N1CCN2CCC1CC2 [NS-6740] ?
6.59

###

molecular target: 5-HT2B (Homo sapiens, UniProt P41595); assay: Selectivity panel, functional
Sequence (P41595 whole entry): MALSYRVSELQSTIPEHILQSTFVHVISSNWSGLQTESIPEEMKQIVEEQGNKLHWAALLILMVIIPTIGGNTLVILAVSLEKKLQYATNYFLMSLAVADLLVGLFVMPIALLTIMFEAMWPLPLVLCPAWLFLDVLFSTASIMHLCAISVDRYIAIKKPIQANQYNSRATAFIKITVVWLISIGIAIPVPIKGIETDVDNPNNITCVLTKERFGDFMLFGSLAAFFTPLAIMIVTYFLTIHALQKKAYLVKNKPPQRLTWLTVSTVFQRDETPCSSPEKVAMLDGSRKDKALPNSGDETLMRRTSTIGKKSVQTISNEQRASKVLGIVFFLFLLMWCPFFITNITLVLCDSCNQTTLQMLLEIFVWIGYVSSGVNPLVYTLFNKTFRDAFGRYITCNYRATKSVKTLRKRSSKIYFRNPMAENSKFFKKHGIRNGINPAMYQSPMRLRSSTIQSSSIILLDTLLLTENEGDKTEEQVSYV
readout: EC50

EC50 for c1cn(-c2cc(NC3=NC[C@@]4(CN5CCC4CC5)O3)ncn2)cn1 [BMS-933043] ?
> 10 µM

###

target: Muscarinic M2 (Homo sapiens, UniProt P08172)
Sequence (P08172 whole entry): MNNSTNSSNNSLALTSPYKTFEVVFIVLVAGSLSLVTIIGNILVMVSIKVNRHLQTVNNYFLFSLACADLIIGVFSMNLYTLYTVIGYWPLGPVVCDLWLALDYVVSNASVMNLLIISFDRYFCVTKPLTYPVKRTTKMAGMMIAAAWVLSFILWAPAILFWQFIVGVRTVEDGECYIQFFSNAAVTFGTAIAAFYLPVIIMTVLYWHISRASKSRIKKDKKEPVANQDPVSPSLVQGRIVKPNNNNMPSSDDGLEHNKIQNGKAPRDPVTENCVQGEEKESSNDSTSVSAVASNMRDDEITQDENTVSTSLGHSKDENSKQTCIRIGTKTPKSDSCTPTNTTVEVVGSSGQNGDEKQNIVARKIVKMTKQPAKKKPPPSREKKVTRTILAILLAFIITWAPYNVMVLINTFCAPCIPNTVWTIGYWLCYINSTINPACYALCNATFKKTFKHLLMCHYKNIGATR
readout: IC50 (µM)
All answers are understood in µM, so give the number only.

IC50 for c1cn(-c2cc(NC3=NC[C@@]4(CN5CCC4CC5)O3)ncn2)cn1 ?
19.1

###

test: Plasma and brain concentrations after dosing; type: in vivo, mouse; conditions: mouse, brain, subcutaneous, 1 mg/kg, Mouse NOR (0.03-1 mg/kg study); 1 mg/kg sc; 30 min; read-out: Brain Mean ± SD
readout: concentration at 30 min (nM)
All answers are understood in nM, so give the number only.

concentration at 30 min for c1cn(-c2cc(NC3=NC[C@@]4(CN5CCC4CC5)O3)ncn2)cn1 ?
78

###

target: HEK293/rat α7 nAChR cells (Rattus norvegicus, UniProt Q05941); construct: expressed in transfected cells; assay: Whole cell voltage clamp electrophysiology; type: cell-based; conditions: IC50 for inhibition of BMS-933043 (10 μM) peak current response, n = 6
readout: pIC50
Hey, just a heads up that pIC50 is the negative log base 10 of the concentration in molar.

pIC50 for O=C(c1ccc(-c2cccc(C(F)(F)F)c2)o1)N1CCN2CCC1CC2 [NS-6740] ?
6.55

###

assay: Plasma and brain concentrations after dosing; format: in vivo, rat; settings: rat, brain, sc, 3 mg/kg, Rat MMN; 3 mg/kg sc; 30 min; read-out: Brain Mean ± SD
readout: concentration at 30 min (nM)
All answers are understood in nM, so give the number only.

concentration at 30 min for c1cn(-c2cc(NC3=NC[C@@]4(CN5CCC4CC5)O3)ncn2)cn1 ?
378

###

target: Rat Brain α7 nAChR (Rattus norvegicus); assay: [3H]-A-585539 filtration binding; settings: read-out: Rat Brain α7 nAChR Mean ± SD Ki
readout: pKi
Hey, just a heads up that pKi is the negative log base 10 of the concentration in molar.

pKi for c1cn(-c2cc(NC3=NC[C@@]4(CN5CCC4CC5)O3)ncn2)cn1 ?
8.48

###

target: human 5-HT3A receptors (Homo sapiens, UniProt P46098); assay: biochemical; settings: human 5-HT3A mean Ki ± SD
Sequence (P46098 24-478): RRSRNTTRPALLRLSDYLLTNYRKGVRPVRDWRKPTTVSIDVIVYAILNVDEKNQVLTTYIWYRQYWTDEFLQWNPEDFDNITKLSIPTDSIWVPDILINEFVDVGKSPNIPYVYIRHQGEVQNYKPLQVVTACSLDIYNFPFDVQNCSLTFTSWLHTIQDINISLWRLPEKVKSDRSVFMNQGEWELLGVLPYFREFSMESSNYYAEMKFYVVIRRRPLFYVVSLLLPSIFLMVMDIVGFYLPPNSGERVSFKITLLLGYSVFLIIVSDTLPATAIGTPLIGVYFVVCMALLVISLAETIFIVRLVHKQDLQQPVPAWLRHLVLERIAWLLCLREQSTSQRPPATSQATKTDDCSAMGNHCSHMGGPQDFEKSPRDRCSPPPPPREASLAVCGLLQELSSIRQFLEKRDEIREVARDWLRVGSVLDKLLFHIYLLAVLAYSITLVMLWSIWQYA
readout: pKi
Hey, just a heads up that pKi is the negative log base 10 of the concentration in molar.

pKi for c1cn(-c2cc(NC3=NC[C@@]4(CN5CCC4CC5)O3)ncn2)cn1 [BMS-933043] ?
5.61

###

assay: Plasma and brain concentrations after dosing; type: in vivo, rat; details: rat, brain/plasma, sc, 0.03 mg/kg, Rat MMN; 0.03 mg/kg sc; 30 min
readout: Kp at 30 min

Kp at 30 min for c1cn(-c2cc(NC3=NC[C@@]4(CN5CCC4CC5)O3)ncn2)cn1 ?
0.57

###

assay: Plasma and brain concentrations after dosing; format: in vivo, mouse; settings: mouse, brain/plasma, subcutaneous, 0.3 mg/kg, Mouse NOR (0.03-1 mg/kg study); 0.30 mg/kg sc; 30 min
readout: Kp at 30 min
Hey, just send me the number, nothing else.

Kp at 30 min for c1cn(-c2cc(NC3=NC[C@@]4(CN5CCC4CC5)O3)ncn2)cn1 ?
0.12

###

target: NMDA NR1/2A (Homo sapiens, UniProt Q05586+Q12879); assay: Selectivity panel, functional
Sequence (Q12879 23-1464, other chains not shown): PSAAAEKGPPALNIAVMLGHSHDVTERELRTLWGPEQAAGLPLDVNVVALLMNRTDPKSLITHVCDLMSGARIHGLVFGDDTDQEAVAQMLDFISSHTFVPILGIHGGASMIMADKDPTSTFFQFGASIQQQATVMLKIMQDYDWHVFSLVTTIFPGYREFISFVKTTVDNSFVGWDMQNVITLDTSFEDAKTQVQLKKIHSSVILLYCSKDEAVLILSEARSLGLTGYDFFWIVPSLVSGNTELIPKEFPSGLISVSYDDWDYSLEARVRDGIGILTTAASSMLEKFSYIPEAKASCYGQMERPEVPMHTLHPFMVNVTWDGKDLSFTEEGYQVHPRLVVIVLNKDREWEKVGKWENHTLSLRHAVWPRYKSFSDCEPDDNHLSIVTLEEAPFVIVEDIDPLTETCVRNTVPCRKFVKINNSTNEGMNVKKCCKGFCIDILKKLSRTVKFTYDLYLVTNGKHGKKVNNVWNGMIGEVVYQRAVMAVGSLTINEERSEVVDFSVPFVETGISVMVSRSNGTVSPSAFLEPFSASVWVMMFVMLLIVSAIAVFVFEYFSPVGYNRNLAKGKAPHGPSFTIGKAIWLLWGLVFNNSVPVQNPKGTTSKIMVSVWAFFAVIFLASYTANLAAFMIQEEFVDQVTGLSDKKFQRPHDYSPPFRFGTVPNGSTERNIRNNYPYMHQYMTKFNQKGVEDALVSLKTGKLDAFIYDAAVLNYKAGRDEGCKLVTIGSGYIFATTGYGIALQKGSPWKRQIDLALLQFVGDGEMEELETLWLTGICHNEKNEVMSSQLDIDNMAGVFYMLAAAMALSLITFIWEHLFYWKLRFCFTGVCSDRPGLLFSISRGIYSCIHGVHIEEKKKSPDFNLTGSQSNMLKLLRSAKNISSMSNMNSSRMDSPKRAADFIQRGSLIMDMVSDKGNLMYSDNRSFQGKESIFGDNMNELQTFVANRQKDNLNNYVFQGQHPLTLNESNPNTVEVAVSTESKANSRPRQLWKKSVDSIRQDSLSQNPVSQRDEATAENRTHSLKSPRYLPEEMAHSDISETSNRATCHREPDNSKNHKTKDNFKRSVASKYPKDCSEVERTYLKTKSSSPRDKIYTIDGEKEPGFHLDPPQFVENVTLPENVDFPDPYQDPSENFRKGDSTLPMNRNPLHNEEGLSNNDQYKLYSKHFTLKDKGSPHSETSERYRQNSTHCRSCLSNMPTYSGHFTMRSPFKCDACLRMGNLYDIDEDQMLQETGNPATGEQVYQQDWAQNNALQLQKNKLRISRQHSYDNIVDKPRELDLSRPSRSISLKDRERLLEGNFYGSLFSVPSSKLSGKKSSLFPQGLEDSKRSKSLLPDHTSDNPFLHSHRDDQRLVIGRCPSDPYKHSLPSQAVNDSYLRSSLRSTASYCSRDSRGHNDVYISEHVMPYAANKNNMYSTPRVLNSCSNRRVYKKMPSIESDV
pIC50: −log10 of the molar value.
readout: pIC50

Recall the recorded pIC50 for c1cn(-c2cc(NC3=NC[C@@]4(CN5CCC4CC5)O3)ncn2)cn1 [BMS-933043] with NMDA NR1/2A (Homo sapiens, UniProt Q05586+Q12879) and state it.
< 4.52

###

target: Histamine H1 (Homo sapiens)
Sequence (P35367 whole entry): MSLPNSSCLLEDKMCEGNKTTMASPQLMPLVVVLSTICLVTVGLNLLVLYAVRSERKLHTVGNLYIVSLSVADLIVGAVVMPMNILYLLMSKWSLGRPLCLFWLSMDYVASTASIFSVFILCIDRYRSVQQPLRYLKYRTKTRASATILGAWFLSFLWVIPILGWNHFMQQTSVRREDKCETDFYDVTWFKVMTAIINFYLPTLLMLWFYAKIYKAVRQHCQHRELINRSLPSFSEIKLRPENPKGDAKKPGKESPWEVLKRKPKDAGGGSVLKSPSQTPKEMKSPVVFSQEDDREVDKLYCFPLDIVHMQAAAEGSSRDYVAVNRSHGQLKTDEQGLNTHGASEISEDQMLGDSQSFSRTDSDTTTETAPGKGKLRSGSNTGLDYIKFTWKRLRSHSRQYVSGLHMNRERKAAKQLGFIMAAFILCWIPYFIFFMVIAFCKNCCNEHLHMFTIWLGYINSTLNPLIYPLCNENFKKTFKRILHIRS
pIC50: −log10 of the molar value.
readout: pIC50

Recall the recorded pIC50 for c1cn(-c2cc(NC3=NC[C@@]4(CN5CCC4CC5)O3)ncn2)cn1 with Histamine H1 (Homo sapiens) and state it.
< 4.52

###

test: Plasma and brain concentrations after dosing; format: in vivo, rat; conditions: rat, plasma, po, 3 mg/kg, Rat Neonatal PCP ID/ED; 3 mg/kg po; 150 min; read-out: Plasma Mean ± SD
readout: concentration at 150 min (nM)
All answers are understood in nM, so give the number only.

concentration at 150 min for c1cn(-c2cc(NC3=NC[C@@]4(CN5CCC4CC5)O3)ncn2)cn1 ?
225

###

experiment: Plasma and brain concentrations after dosing; format: in vivo, rat; conditions: rat, brain, sc, 0.03 mg/kg, Rat MMN; 0.03 mg/kg sc; 30 min; read-out: Brain Mean ± SD
readout: concentration at 30 min (nM)
All answers are understood in nM, so give the number only.

concentration at 30 min for c1cn(-c2cc(NC3=NC[C@@]4(CN5CCC4CC5)O3)ncn2)cn1 ?
13

###

target: Rat Brain α7 nAChR (Rattus norvegicus, UniProt Q05941); experiment: [3H]-A-585539 filtration binding; settings: displacement of [3H]-A-585539; read-out: Rat Brain α7 nAChR Mean ± SD Ki
Sequence (Q05941 23-502): as the sequence (Q05941 23-502) above
readout: Ki (nM)
All answers are understood in nM, so give the number only.

Ki for O=C(c1ccc(-c2cccc(C(F)(F)F)c2)o1)N1CCN2CCC1CC2 [NS-6740] ?
2.85

###

molecular target: rat α3β4 nAChR (Rattus norvegicus, UniProt P04757+P12392); experiment: Ca2+ flux (FLIPR) agonist/antagonist assay; details: FLIPR antagonist mode, EC90 ACh
Sequence (P04757 26-499): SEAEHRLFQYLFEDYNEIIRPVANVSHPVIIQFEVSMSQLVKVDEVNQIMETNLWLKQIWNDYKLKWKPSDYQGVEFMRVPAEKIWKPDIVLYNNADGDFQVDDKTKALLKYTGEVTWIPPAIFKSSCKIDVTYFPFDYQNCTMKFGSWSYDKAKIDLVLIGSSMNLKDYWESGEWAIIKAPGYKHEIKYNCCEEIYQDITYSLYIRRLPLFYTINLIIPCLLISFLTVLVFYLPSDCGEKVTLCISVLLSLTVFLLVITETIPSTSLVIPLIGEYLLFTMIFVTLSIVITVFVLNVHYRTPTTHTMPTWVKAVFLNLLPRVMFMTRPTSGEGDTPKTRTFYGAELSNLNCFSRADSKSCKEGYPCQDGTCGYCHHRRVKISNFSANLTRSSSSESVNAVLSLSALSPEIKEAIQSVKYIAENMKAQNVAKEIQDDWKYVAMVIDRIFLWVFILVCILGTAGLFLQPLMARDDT
Sequence (P12392 21-495): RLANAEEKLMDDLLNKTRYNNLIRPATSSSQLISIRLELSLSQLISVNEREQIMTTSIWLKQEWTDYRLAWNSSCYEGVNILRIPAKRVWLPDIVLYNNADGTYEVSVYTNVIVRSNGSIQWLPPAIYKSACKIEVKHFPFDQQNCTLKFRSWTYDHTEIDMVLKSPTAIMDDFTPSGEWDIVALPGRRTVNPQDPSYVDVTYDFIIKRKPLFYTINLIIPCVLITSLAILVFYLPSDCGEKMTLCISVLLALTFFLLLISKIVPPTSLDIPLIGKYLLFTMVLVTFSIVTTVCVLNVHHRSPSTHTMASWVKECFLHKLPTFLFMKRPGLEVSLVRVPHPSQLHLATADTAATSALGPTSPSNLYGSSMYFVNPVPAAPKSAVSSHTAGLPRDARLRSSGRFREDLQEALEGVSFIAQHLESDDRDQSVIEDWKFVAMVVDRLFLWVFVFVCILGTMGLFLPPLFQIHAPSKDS
readout: IC50

IC50 for c1cn(-c2cc(NC3=NC[C@@]4(CN5CCC4CC5)O3)ncn2)cn1 ?
> 30 µM

###

biological target: Estrogen receptor alpha (Homo sapiens)
pIC50: −log10 of the molar value.
readout: pIC50

pIC50 for c1cn(-c2cc(NC3=NC[C@@]4(CN5CCC4CC5)O3)ncn2)cn1 [BMS-933043] ?
< 3.82

###

target: HEK293/rat α7 nAChR cells (Rattus norvegicus, UniProt Q05941); assay: Whole cell voltage clamp electrophysiology
readout: EC50 (µM)
All answers are understood in µM, so give the number only.

Recall the recorded EC50 for c1cn(-c2cc(NC3=NC[C@@]4(CN5CCC4CC5)O3)ncn2)cn1 with HEK293/rat α7 nAChR cells (Rattus norvegicus, UniProt Q05941) and state it.
0.14

###

experiment: Plasma and brain concentrations after dosing; assay type: in vivo, rat; settings: rat, plasma, sc, 0.3 mg/kg, Rat MMN; 0.30 mg/kg sc; 30 min; read-out: Plasma Mean ± SD
readout: concentration at 30 min (nM)
All answers are understood in nM, so give the number only.

concentration at 30 min for c1cn(-c2cc(NC3=NC[C@@]4(CN5CCC4CC5)O3)ncn2)cn1 [BMS-933043] ?
75

###

Assay: Plasma and brain concentrations after dosing
Format: in vivo, mouse
Settings: mouse, brain, subcutaneous, 1 mg/kg, Mouse NOR (1-10 mg/kg study); 1 mg/kg sc; 30 min; read-out: Brain Mean ± SD
Protocol: Occupancy determinations were made either on completion of behavioral testing or in satellite groups of animals dosed in parallel with behavioral testing. […] Bound radioactivity was measured using a Wallac Microbeta liquid scintillation counter. Specific binding was calculated by subtracting the value of the non-specific binding from that of the total binding in each sample. […]
readout: concentration at 30 min (nM)
All answers are understood in nM, so give the number only.

concentration at 30 min for c1cn(-c2cc(NC3=NC[C@@]4(CN5CCC4CC5)O3)ncn2)cn1 [BMS-933043] ?
97

###

assay: Plasma and brain concentrations after dosing; assay type: in vivo, rat; conditions: rat, plasma, po, 1 mg/kg, Rat Neonatal PCP ID/ED; 1 mg/kg po; 150 min; read-out: Plasma Mean ± SD
readout: concentration at 150 min (nM)
All answers are understood in nM, so give the number only.

concentration at 150 min for c1cn(-c2cc(NC3=NC[C@@]4(CN5CCC4CC5)O3)ncn2)cn1 ?
21

###

assay: Plasma and brain concentrations after dosing; format: in vivo, mouse; details: mouse, brain/plasma, subcutaneous, 1 mg/kg, Mouse NOR (1-10 mg/kg study); 1 mg/kg sc; 30 min
readout: Kp at 30 min

Kp at 30 min for c1cn(-c2cc(NC3=NC[C@@]4(CN5CCC4CC5)O3)ncn2)cn1 ?
0.21
